- Measured Target: T1, ECF27_4265
- T1 chain: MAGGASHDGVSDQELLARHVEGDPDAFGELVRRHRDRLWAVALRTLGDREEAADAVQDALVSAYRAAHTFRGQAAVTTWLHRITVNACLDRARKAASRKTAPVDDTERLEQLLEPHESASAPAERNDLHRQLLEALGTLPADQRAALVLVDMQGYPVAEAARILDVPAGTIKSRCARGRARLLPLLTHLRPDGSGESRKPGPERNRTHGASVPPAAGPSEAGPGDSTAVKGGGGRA
True means recorded fold repression is 5 or above; False means it is below 5.

AS27_4265 (protein) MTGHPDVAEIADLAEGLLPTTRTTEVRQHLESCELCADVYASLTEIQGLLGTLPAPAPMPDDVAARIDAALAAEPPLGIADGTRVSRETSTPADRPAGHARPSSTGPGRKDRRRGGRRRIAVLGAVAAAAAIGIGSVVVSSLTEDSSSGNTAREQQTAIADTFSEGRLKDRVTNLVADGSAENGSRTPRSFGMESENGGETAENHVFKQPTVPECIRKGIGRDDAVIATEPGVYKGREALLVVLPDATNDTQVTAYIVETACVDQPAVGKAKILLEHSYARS :: True
AS16_973 (protein) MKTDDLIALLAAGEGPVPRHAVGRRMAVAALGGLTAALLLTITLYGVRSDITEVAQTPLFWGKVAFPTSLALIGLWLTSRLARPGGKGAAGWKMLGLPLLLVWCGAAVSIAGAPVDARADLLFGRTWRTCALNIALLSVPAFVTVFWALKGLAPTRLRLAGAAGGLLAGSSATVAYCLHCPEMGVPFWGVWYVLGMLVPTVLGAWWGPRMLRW :: False
AS02_915 (protein) MEKTGQEWVSASVDGETDRQTLAELAADTDSHAKWQRYHLMGDAMRDELPQAMPLDLSARIAAALEDEPTILAPKVEREATQAPSRAVVVPFMRQLGQYGIAAAVALMAVVGVQNYQSTQDDAPLPVLNTRPLVGTATPVSLQTGPVANQNQGNANDQLLEQRRRINAYLQDHMLQQRLNTGAVVDDNSEVTPIPVNR :: False
AS04_1609 (protein) MNRTTEQRNAEVMKTIGLLDQMPRVEVDHLFRVRLMQRIEAMEVKKTSWSALPGGAFNPRLAFMALLLMLNIASALMLFMHGTPQATGSSGAIAESLTEDYGGPALSYYDDQTTIDR :: False
AS33_375 (protein) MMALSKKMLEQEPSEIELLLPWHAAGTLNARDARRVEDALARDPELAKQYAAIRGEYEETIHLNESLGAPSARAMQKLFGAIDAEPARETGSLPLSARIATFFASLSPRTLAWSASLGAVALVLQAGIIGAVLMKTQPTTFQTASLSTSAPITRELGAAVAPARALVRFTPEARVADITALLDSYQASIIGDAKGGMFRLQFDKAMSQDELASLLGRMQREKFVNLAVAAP :: True

Now turn to the next binder.
# input Tell me whether fold repression is at least 5 here: AS15_524 (protein) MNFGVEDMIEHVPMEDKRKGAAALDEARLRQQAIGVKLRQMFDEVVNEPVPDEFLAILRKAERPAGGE
# output False
